# Tested on: Crude diglycosidase
# assay_details: Examination of temperature in the conversion into isoflavone aglycons by diglycosidase using soybean materials
# Format: biochemical, Penicillium multicolor IAM7153
# Set-up: concentration or dose not given beside the values
# experimental_conditions: 55 °C; heat treatment of enzyme: no; 0 h
endpoint: Decomposition efficiency of glycitin family in roasted soy flour

Consider the reported Decomposition efficiency of glycitin family in roasted soy flour for these compounds:
COc1cc2c(=O)c(-c3ccc(O)cc3)coc2cc1O [glycitein]    10.4%
COc1cc2c(=O)c(-c3ccc(O)cc3)coc2cc1O[C@@H]1O[C@H](COC(C)=O)[C@@H](O)[C@H](O)[C@H]1O [acetylglycitin, 6″-O-acetylglycitin]    39.1%

# input for lookup
Qu. Fill in: Decomposition efficiency of glycitin family in roasted soy flour of COc1cc2c(=O)c(-c3ccc(O)cc3)coc2cc1O[C@@H]1O[C@H](CO)[C@@H](O)[C@H](O)[C@H]1O [glycitin] is ___
Ans. 50.5%
